- Assay: chemical genetic growth profiling, strain panel (AID 1159580);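 note: tested at 20 µM; growth read once vehicle control cultures reached saturation at 30 °C; 1 = growth at the plate median or of vehicle wells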
- Measurement Conditions: S. cerevisiae deletion strains, growth OD, locus YLR039C, strain RIC1, stronger effect = lower value
Among all 5,500 compounds or so, about 2,000 (36%) were called active. Roughly 18% stayed inconclusive and do not appear here. The list shows a part of the results.
Response field label: string, one of label 1 (normalized growth strictly below 1) or label 0.

Compound: CCCCCCc1cc2c(C)cc(=O)oc2cc1O
Label: label 1

Compound: CC(=O)Oc1ccc(/C=C/c2cc(OC(C)=O)cc(OC(C)=O)c2)cc1
Label: label 1

Compound: CC(C)CCCC(C)C1CCC2C3CC(=O)[C@H]4C[C@@H](O)CC[C@]4(C)C3CC[C@]12C (stereo partly specified)
Label: label 1

Compound: N/C(Cc1cccc2ccccc12)=N/O
Label: label 0

Compound: CC(C)CCCC(C)C1CCC2C3=CC[C@H]4C[C@@H](O)CC[C@]4(C)C3CC[C@@]21C (stereo partly specified)
Label: label 1

Compound: Oc1c(Cl)cc(Cl)cc1Sc1cc(Cl)cc(Cl)c1O
Label: label 1

Compound: N#CCCC1(CCC#N)c2ccccc2-c2ccccc21
Label: label 0

Compound: CC(C)CCCC(C)C1CCC2C3CC[C@H]4C[C@@H](O)CC[C@]4(C)C3CC[C@]12C (stereo partly specified)
Label: label 0

Compound: CO[C@H]1CC(O[C@@H]2/C(C)=C/C[C@@H]3C[C@@H](C[C@]4(CC[C@H](C)[C@@H](C5CCCCC5)O4)O3)OC(=O)[C@@H]3C=C(C)/C(=N\O)[C@H]4OC/C(=C\C=C\[C@@H]2C)[C@]43O)O[C@@H](C)C1O (stereo partly specified)
Label: label 1

Compound: CC(C)CCCC(C)C1CCC2C3C[C@@H](O)[C@@]4(O)C[C@@H](O)CC[C@]4(C)C3CC[C@]12C (stereo partly specified)
Label: label 1

Compound: CC1=CC(=O)c2ccccc2C1=O
Label: label 1

Compound: CC(C)CCCC(C)[C@H]1CCC2C3C(=O)C=C4C[C@@H](O)CC[C@]4(C)C3CC[C@@]21C (stereo partly specified)
Label: label 0

Compound: CC(=O)O[C@H]1CC[C@@]2(C)C(=CC(=O)C3C4CCC(C(C)CCCC(C)C)[C@@]4(C)CCC32)C1 (stereo partly specified)
Label: label 0

Compound: CC(=O)Oc1ccc(O)cc1
Label: label 0

----------
- Assay: chemical genetic growth profiling, strain panel (AID 1159580);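 note: tested at 20 µM; growth read once vehicle control cultures reached saturation at 30 °C; 1 = growth at the plate median or of vehicle wells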
- Measurement Conditions: S. cerevisiae deletion strains, growth OD, locus YDR137W, strain rgp1, stronger effect = lower value
The campaign covered roughly 5,500 compounds. About 2,000 (36%) were called active. Roughly 18% stayed inconclusive and do not appear here. This is one part of the list.
hey, just use 1.0 if measured normalized growth is less than 1, otherwise 0.0

Molecule: CC(C)=CCCC(C)[C@@H]1CC[C@]2(C)C3=C(CC[C@@]12C)C1(C)CC[C@H](O)C(C)(C)C1CC3 (stereo not given in full)
Label: 1.0
//
Molecule: CCC(C)C(=O)OC1[C@@H]2CC3=C4CC(=O)O[C@@H](c5ccoc5)[C@]4(C)CCC3[C@@](C)(C2=O)[C@@H](CC(=O)OC)C1(C)C (stereo not given in full)
Label: 1.0
//
Molecule: COc1ccc2cc(CCC(C)=O)ccc2c1
Label: 0.0
//
Molecule: CC(C)c1ccc2c(c1)CCC1[C@](C)(CN)CCC[C@]21C (stereo not given in full)
Label: 0.0

----------
- Assay: chemical genetic growth profiling, strain panel (AID 1159580);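 note: tested at 20 µM; growth read once vehicle control cultures reached saturation at 30 °C; 1 = growth at the plate median or of vehicle wells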
- Measurement Conditions: S. cerevisiae deletion strains, growth OD, locus YJL187C, strain SWE1 (second series), stronger effect = lower value
The campaign covered roughly 5,500 compounds. About 2,000 (36%) were called active. Not shown: some 18% with an inconclusive outcome. Some of the results follow.
# normalized growth per entry
Observed Property: normalized growth

Molecule: CC(C)CCCC(C)[C@H]1CCC2C3CC=C4C[C@@H](O)CC[C@]4(C)C3CC[C@@]21C (stereo partly drawn)
Observed Property: normalized growth
Observed Result: 1.01

Molecule: CC(C)CCCC(C)[C@H]1CCC2C3CC[C@@H]4C[C@H](O)CC[C@]4(C)C3CC[C@@]21C (stereo partly drawn)
Observed Property: normalized growth
Observed Result: 1.01

Molecule: CO[C@H]1CC(O[C@@H]2/C(C)=C/C[C@@H]3C[C@@H](C[C@]4(CC[C@H](C)[C@@H](C5CCCCC5)O4)O3)OC(=O)[C@@H]3C=C(C)/C(=N\O)[C@H]4OC/C(=C\C=C\[C@@H]2C)[C@]43O)O[C@@H](C)C1O (stereo partly drawn)
Observed Property: normalized growth
Observed Result: 0.99

Molecule: CC(C)c1ccc2c(c1)CCC1[C@](C)(CN)CCC[C@]21C (stereo partly drawn)
Observed Property: normalized growth
Observed Result: 0.243

Molecule: CC(C)CCCC(C)C1CCC2C3CC[C@H]4C[C@@H](O)CC[C@]4(C)C3CC[C@]12C (stereo partly drawn)
Observed Property: normalized growth
Observed Result: 1.01

Molecule: CC(C)c1ccc2c(c1)CCC1C(C)(C(N)=O)CCCC21C (stereo not drawn)
Observed Property: normalized growth
Observed Result: 0.924

Molecule: CC(=O)OCC(=O)[C@@]1(O)[C@H](C)CC2C3CCC4=CC(=O)C=C[C@]4(C)[C@@]3(F)[C@@H](O)C[C@@]21C (stereo partly drawn)
Observed Property: normalized growth
Observed Result: 1.01

Molecule: CN(C)CCCN1c2ccccc2Sc2ccc(Cl)cc21
Observed Property: normalized growth
Observed Result: 0.949

----------
- Assay: chemical genetic growth profiling, strain panel (AID 1159580);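 note: tested at 20 µM; growth read once vehicle control cultures reached saturation at 30 °C; 1 = growth at the plate median or of vehicle wells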
- Measurement Conditions: S. cerevisiae deletion strains, growth OD, locus YKR091W, strain srl3
Out of some 5,500 compounds screened, about 2,000 (36%) were called active. Another 18% or so got no clear call; they are omitted. Rule as the data show it: active = normalized growth mostly below about 0.91 (no sharp cut-off); inconclusive = no clear call, values can overlap the other calls; inactive = mostly above about 0.92. This is one part of the list.
Labels: active, inactive

Compound: Cc1c(C)c2c(c(C)c1O)CCC(C)(CCCC(C)CCCC(C)CCCC(C)C)O2 (stereo not drawn)
Label: inactive

Compound: O=C(O)C1=CCCNC1
Label: inactive

Compound: CC(=O)Oc1cccc(O)c1
Label: inactive

Compound: Cc1cc(=O)oc2cc(O)cc(O)c12
Label: inactive

Compound: OC[C@H]1O[C@@](CO)(O[C@@H]2O[C@H](CO)[C@@H](O)[C@H](O)[C@H]2O)[C@@H](O[C@@H]2O[C@H](CO)[C@@H](O)[C@H](O)[C@H]2O)[C@@H]1O
Label: inactive

Compound: CN(C)[C@@H]1C(=O)C(C(N)=O)=C(O)[C@@]2(O)C(=O)C3=C(O)c4c(O)ccc(Cl)c4[C@@](C)(O)[C@H]3C[C@@H]12
Label: inactive

Compound: CC(=O)O[C@H]1CCC2(C)C3=C(CCC2C1(C)C)[C@@]1(C)CC[C@@H](C(C)CCC=C(C)C)[C@]1(C)CC3 (stereo partly drawn)
Label: inactive

Compound: CC1=CC(=O)c2ccccc2C1=O
Label: inactive

Compound: COC(=O)c1c(OC)cc2c(c1C)Oc1c(Cl)c(OC(C)=O)c(Cl)c(C)c1C(=O)O2
Label: inactive

Compound: COC(=O)c1c(OC)cc2c(c1C)Oc1c(Cl)c(O)c(Cl)c(C)c1C(=O)O2
Label: inactive

Compound: CC(C)CCCC(C)[C@H]1CCC2C3CC=C4CC(=O)CC[C@]4(C)C3CC[C@@]21C (stereo partly drawn)
Label: inactive

Compound: CC(C)CCCC(C)C1CCC2C3C[C@@H](O)[C@@]4(O)C[C@@H](O)CC[C@]4(C)C3CC[C@]12C (stereo partly drawn)
Label: inactive

Compound: CN(C)[C@@H]1C(=O)C(C(N)=O)=C(O)[C@@]2(O)C(=O)C3=C(O)c4c(O)ccc(Cl)c4[C@@H](O)[C@H]3C[C@@H]12
Label: inactive

Compound: CN(C)[C@@H]1C(=O)C(C(=O)NCN2CCCC2)=C(O)[C@@]2(O)C(=O)C3=C(O)c4c(O)cccc4[C@@](C)(O)[C@H]3C[C@@H]12
Label: inactive

Compound: C/C1=C/CC(C)(C)/C=C/C/C(C)=C/CC1
Label: inactive

Compound: NCC(=O)c1ccccc1
Label: inactive

Compound: Cc1cc(=O)oc2cc(O)c(O)cc12
Label: inactive

Compound: CC(C)CCCC(C)[C@H]1CCC2C3C(=O)C=C4C[C@@H](O)CC[C@]4(C)C3CC[C@@]21C (stereo partly drawn)
Label: inactive

Compound: CC(C)CCCC(C)C1CCC2C3CC(=O)[C@H]4C[C@@H](O)CC[C@]4(C)C3CC[C@]12C (stereo partly drawn)
Label: inactive

Compound: COc1cc(C(C)=O)cc(OC)c1O
Label: inactive

Compound: NC(=O)NC(=O)Cc1ccccc1
Label: inactive

Compound: CS(=O)(=O)c1ccc([C@@H](O)[C@@H](CO)NC(=O)C(Cl)Cl)cc1
Label: inactive

Compound: CC(=O)c1cc(CC=C(C)C)c(O)c(CC=C(C)C)c1
Label: inactive

Compound: CC1=CCCC2C1(C)CCC(C)C2(C)CC/C(C)=C/C[n+]1cn(C)c2c(N)ncnc21 (stereo not drawn)
Label: inactive

Compound: O=P1(NCCCl)OCCCN1CCCl (stereo not drawn)
Label: inactive

Compound: CN(C)[C@@H]1C(=O)C(C(N)=O)=C(O)[C@@]2(O)C(=O)C3=C(O)c4c(O)cccc4[C@@](C)(O)[C@H]3[C@H](O)[C@@H]12
Label: inactive

Compound: C/C=C\C1=C(C(=O)O)N2C(=O)C(NC(=O)C(N)c3ccc(O)cc3)C2SC1 (stereo not drawn)
Label: inactive

Compound: CC1=CC(=O)c2c(O)cccc2C1=O
Label: active

Compound: Nc1ccc(C(=O)O)cc1
Label: inactive

Compound: CN1CCN(C(=O)OC2c3nccnc3C(=O)N2c2ccc(Cl)cn2)CC1 (stereo not drawn)
Label: inactive

Compound: CCOC(=O)[C@H](CCc1ccccc1)N[C@@H](C)C(=O)N1CCC[C@H]1C(=O)O
Label: inactive

Compound: CC(=O)Oc1ccc(C(c2ccc(OC(C)=O)cc2)c2ccccn2)cc1
Label: inactive

Compound: NC1=NCCN1CC(=O)O
Label: inactive

Compound: CC(C)=CCCC(C)[C@@H]1CC[C@]2(C)C3=C(CC[C@@]12C)C1(C)CC[C@H](O)C(C)(C)C1CC3 (stereo partly drawn)
Label: active

Compound: CC(CCC(=O)O)[C@H]1CCC2C3C(=O)C[C@@H]4CC(=O)CC[C@]4(C)C3CC(=O)[C@@]21C (stereo partly drawn)
Label: inactive

Compound: CC(C)(C)NC[C@H](O)c1ccc(O)c(CO)c1
Label: inactive

Compound: C[n+]1ccccc1/C=N/O
Label: inactive

Compound: CC(=O)O[C@H]1CCC2(C)C3=C(CCC2C1(C)C)[C@]1(C)CCC(C(C)CCC=C(C)C)[C@@]1(C)CC3 (stereo partly drawn)
Label: inactive
